Data provenance is ChEMBL document CHEMBL4130363.

Molecular target: Histamine H1 receptor (Homo sapiens)
Experiment: Agonist activity at recombinant human histamine H1 receptor at 10 uM by aequorin reporter based assay relative to agonist
Assay type: functional
ENDPOINT NAME: Activity (%)
Give bare numbers, in %.

> print(dat)
                         given.smiles  obs.value
1  CN(CCCNC(=O)c1cccc(Br)c1)Cc1ccccc1         35

For the 6 compounds below, give their Activity values.
1. CN(CCCNC(=O)c1ccc([N+](=O)[O-])cc1)Cc1ccccc1
2. CN(CCCNC(=O)c1ccc(Br)cc1)Cc1ccccc1
3. CN(CCCNC(=O)c1ccc(Cl)cc1)CCc1ccccc1
4. CN(CCCNC(=O)c1ccc(C(F)(F)F)cc1)Cc1ccccc1
5. CN(CCCNC(=O)c1ccc(Cl)cc1)Cc1ccccc1
6. CN(CCNC(=O)c1ccc(C#N)cc1)Cc1ccccc1

Response:
1: 0; 2: 1; 3: 12; 4: 0; 5: 1; 6: 0

For the 5 compounds below, give their Activity values.
1. CN(CCNC(=O)c1ccc(Cl)cc1)Cc1ccccc1
2. COc1cccc(C(=O)NCCCN(C)Cc2ccccc2)c1
3. CCCc1ccc(C(=O)NCCCN(C)Cc2ccccc2)cc1
4. COc1ccc(C(=O)NCCCN(C)Cc2ccccc2)cc1
5. CN(CCNC(=O)c1ccc([N+](=O)[O-])cc1)Cc1ccccc1

Response:
1. 0
2. 14
3. 0
4. 0
5. 0
